Source listed as patent US5789431A.

tested on: HCT-15; assay: in vitro colon cancer cell growth inhibition (NCI screen)
attribute measured: cytotoxicity log GI50
Record the result as number plus unit.

These solved cases illustrate the format of a correct answer.
# compound, target or test system, cytotoxicity log GI50
data = [
    ("CCC(C)n1c(C)nc2c1C(=O)c1ccccc1C2=O (stereo not shown) [Compound 6]", "HCT-15", "-4.57 M"),
    ("CCCC(=O)NC1=C(NCC)C(=O)c2ccccc2C1=O [Compound 46]", "HCT-15", "-4.40 M"),
    ("CCCC(C)n1c(C)nc2c1C(=O)c1ccccc1C2=O (stereo not shown) [Compound 9]", "HCT-15", "-5.22 M"),
]

Dear colleague, I am looking for the recorded cytotoxicity log GI50 of the following compound: Cc1ccc(Cn2c(C)nc3c2C(=O)c2ccccc2C3=O)cc1 [Compound 17]
-6.21 M

Dear colleague, I am looking for the recorded cytotoxicity log GI50 of the following compound: CCC(C)NC1=C(NC(C)=O)C(=O)c2ccccc2C1=O (stereo not shown) [Compound 30]
-4.34 M

Dear colleague, I am looking for the recorded cytotoxicity log GI50 of the following compound: CCC(C)(C)n1c(C)nc2c1C(=O)c1ccccc1C2=O [Compound 12]
-4.64 M

Dear colleague, I am looking for the recorded cytotoxicity log GI50 of the following compound: CC(=O)NC1=C(NCCN(C)C)C(=O)c2ccccc2C1=O [Compound 39]
-5.02 M

Dear colleague, I am looking for the recorded cytotoxicity log GI50 of the following compound: CC(=O)NC1=C(NC(C)(C)C)C(=O)c2ccccc2C1=O [Compound 32]
-4.76 M

Dear colleague, I am looking for the recorded cytotoxicity log GI50 of the following compound: COC(=O)CCC(=O)NC1=C(NCc2ccccc2)C(=O)c2ccccc2C1=O [Compound 55]
-4.77 M

Dear colleague, I am looking for the recorded cytotoxicity log GI50 of the following compound: O=C(NC1=C(Cl)C(=O)c2ccccc2C1=O)c1ccccc1 [Compound 2e]
-4.60 M

###

tested on: LXFL 529; assay: in vitro non-small cell lung cancer cell growth inhibition (NCI screen)
attribute measured: cytotoxicity log GI50 (M)
Respond numerically; units are M and should not be typed.

These solved cases illustrate the format of a correct answer.
# molecule, target or test system, cytotoxicity log GI50 / M
rows = [
    ("CCC(C)n1c(C)nc2c1C(=O)c1ccccc1C2=O (centres unmarked) [Compound 6]", "LXFL 529", -4.48),
    ("CCC(C)(C)n1c(C)nc2c1C(=O)c1ccccc1C2=O [Compound 12]", "LXFL 529", -4.86),
    ("Cc1nc2c(n1CCC(C)C)C(=O)c1ccccc1C2=O [Compound 11]", "LXFL 529", -4.88),
    ("CCCC(C)n1c(C)nc2c1C(=O)c1ccccc1C2=O (centres unmarked) [Compound 9]", "LXFL 529", -4.90),
]

# next molecule below
Dear colleague, I am looking for the recorded cytotoxicity log GI50 of the following molecule: COc1ccc(Cn2c(C)nc3c2C(=O)c2ccccc2C3=O)cc1 [Compound 18]
-5.37

###

system: UACC-62; experiment: in vitro melanoma cell growth inhibition (NCI screen)
attribute measured: cytotoxicity log GI50 (M)
Respond numerically; units are M and should not be typed.

These solved cases illustrate the format of a correct answer.
# compound, unit label, cytotoxicity log GI50
data = [
    ("O=C(O)CCc1nc2c(n1Cc1ccccc1)C(=O)c1ccccc1C2=O", "M", -4.42),
    ("CC(=O)NC1=C(NCc2ccc(Cl)cc2)C(=O)c2ccccc2C1=O", "M", -5.58),
    ("O=C(O)CCCc1nc2c(n1-c1ccccc1)C(=O)c1ccccc1C2=O", "M", -4.48),
    ("CC(=O)NC1=C(NCCN(C)C)C(=O)c2ccccc2C1=O", "M", -4.98),
]

Dear colleague, I am looking for the recorded cytotoxicity log GI50 of the following compound: O=C(Cc1ccccc1F)NC1=C(Cl)C(=O)c2ccccc2C1=O
-6.48

Dear colleague, I am looking for the recorded cytotoxicity log GI50 of the following compound: CCCc1nc2c(n1CC)C(=O)c1ccccc1C2=O
-4.59

Dear colleague, I am looking for the recorded cytotoxicity log GI50 of the following compound: COc1ccc(CNC2=C(NC(C)=O)C(=O)c3ccccc3C2=O)cc1
-5.11

Dear colleague, I am looking for the recorded cytotoxicity log GI50 of the following compound: COC(=O)CCCC(=O)NC1=C(NCc2ccccc2)C(=O)c2ccccc2C1=O
-4.53

Dear colleague, I am looking for the recorded cytotoxicity log GI50 of the following compound: CCc1nc2c(n1CC)C(=O)c1ccccc1C2=O
-4.54

Dear colleague, I am looking for the recorded cytotoxicity log GI50 of the following compound: COc1cc(OC)cc(C(=O)NC2=C(Cl)C(=O)c3ccccc3C2=O)c1
-6.82

Dear colleague, I am looking for the recorded cytotoxicity log GI50 of the following compound: COC(=O)CCCC(=O)NC1=C(Nc2ccccc2)C(=O)c2ccccc2C1=O
-5.49

###

Item-by-item account of cytotoxicity log GI50
system: CCRF-CEM; assay: in vitro leukemia cell growth inhibition (NCI screen)
Record the result as number plus unit.

These solved cases illustrate the format of a correct answer.
# compound, cytotoxicity log GI50
records = [
    ("Cc1nc2c(n1Cc1ccc(F)cc1)C(=O)c1ccccc1C2=O", "-4.98 M"),
    ("CCC(C)n1c(C)nc2c1C(=O)c1ccccc1C2=O (centres unmarked)", "-4.43 M"),
    ("CCCc1nc2c(n1CC)C(=O)c1ccccc1C2=O", "-4.61 M"),
    ("CCC(C)NC1=C(NC(C)=O)C(=O)c2ccccc2C1=O (centres unmarked)", "-4.66 M"),
]

Dear colleague, I am looking for the recorded cytotoxicity log GI50 of the following compound: CCNC1=C(NC(=O)c2ccc(F)cc2)C(=O)c2ccccc2C1=O
-4.45 M

###

test system: MDA-N; experiment: in vitro breast cancer cell growth inhibition (NCI screen)
attribute measured: cytotoxicity log GI50 (M)
Respond numerically; units are M and should not be typed.

These solved cases illustrate the format of a correct answer.
# smiles record, numeric readout
records = [
    ("COC(=O)CCC(=O)NC1=C(Nc2ccc(OC)cc2)C(=O)c2ccccc2C1=O", -5.74),
    ("CCNC1=C(NC(=O)CCl)C(=O)c2ccccc2C1=O", -4.81),
    ("CCCc1nc2c(n1CC)C(=O)c1ccccc1C2=O", -4.70),
    ("CCNC1=C(NC(=O)c2ccc(OC)cc2)C(=O)c2ccccc2C1=O", -4.43),
    ("CCNC1=C(NC(=O)c2ccc(F)cc2)C(=O)c2ccccc2C1=O", -4.47),
    ("O=C(O)CCc1nc2c(n1Cc1ccccc1)C(=O)c1ccccc1C2=O", -4.67),
    ("O=C(O)CCCc1nc2c(n1Cc1ccccc1)C(=O)c1ccccc1C2=O", -4.65),
    ("CCCC(=O)NC1=C(NCC)C(=O)c2ccccc2C1=O", -4.68),
]

# next compound below
What reported cytotoxicity log GI50 corresponds to CC(=O)NC1=C(NCCCl)C(=O)c2ccccc2C1=O on MDA-N?
-4.67

###

tested on: NCI-H522; assay: in vitro non-small cell lung cancer cell growth inhibition (NCI screen)
Parameter threshold = -5 M. Response is TRUE when cytotoxicity log GI50 meets or exceeds it, else FALSE.

# smiles record, cat
rows = [
    ("COc1ccc(-n2c(CCCC(=O)O)nc3c2C(=O)c2ccccc2C3=O)cc1", "TRUE"),
]

Does O=C(O)CCc1nc2c(n1-c1ccccc1)C(=O)c1ccccc1C2=O have a reported cytotoxicity log GI50 of at least -5 M?
TRUE

Does COc1ccc(CNC2=C(NC(C)=O)C(=O)c3ccccc3C2=O)cc1 have a reported cytotoxicity log GI50 of at least -5 M?
FALSE

Does O=C(O)CCCc1nc2c(n1-c1ccccc1)C(=O)c1ccccc1C2=O have a reported cytotoxicity log GI50 of at least -5 M?
TRUE

Does NC1=C(NC(=O)Cc2ccc(F)cc2)C(=O)c2ccccc2C1=O have a reported cytotoxicity log GI50 of at least -5 M?
TRUE

###

test system: NCI-H522; test: in vitro non-small cell lung cancer cell growth inhibition (NCI screen)
Parameter threshold = -5 M. Response is Yes when cytotoxicity log GI50 meets or exceeds it, else No.

# molecule, cat
data = [
    ("O=C1c2ccccc2C(=O)c2[nH]c(Cc3ccccc3F)nc21 [Compound 4b]", "Yes"),
    ("CCCc1nc2c(n1CC)C(=O)c1ccccc1C2=O [Compound 24]", "Yes"),
    ("Cc1ccc(Cn2c(C)nc3c2C(=O)c2ccccc2C3=O)cc1 [Compound 17]", "No"),
    ("CCNC1=C(NC(=O)CCl)C(=O)c2ccccc2C1=O [Compound 44]", "Yes"),
    ("CCNC1=C(NC(=O)c2ccc(OC)cc2)C(=O)c2ccccc2C1=O [Compound 49]", "Yes"),
]

Does O=C(NC1=C(Cl)C(=O)c2ccccc2C1=O)c1ccc(F)cc1 [Compound 2f] have a reported cytotoxicity log GI50 of at least -5 M?
No

Does CC(=O)NC1=C(NCCO)C(=O)c2ccccc2C1=O [Compound 40] have a reported cytotoxicity log GI50 of at least -5 M?
Yes

Does CC(=O)NC1=C(NCc2ccc(Cl)cc2)C(=O)c2ccccc2C1=O [Compound 42] have a reported cytotoxicity log GI50 of at least -5 M?
No
